Biological target: T1, Murine CTGF (Mus musculus, UniProt P29268)
T1 construct: purchased Abbexa
T1 sequence (P29268 26-348): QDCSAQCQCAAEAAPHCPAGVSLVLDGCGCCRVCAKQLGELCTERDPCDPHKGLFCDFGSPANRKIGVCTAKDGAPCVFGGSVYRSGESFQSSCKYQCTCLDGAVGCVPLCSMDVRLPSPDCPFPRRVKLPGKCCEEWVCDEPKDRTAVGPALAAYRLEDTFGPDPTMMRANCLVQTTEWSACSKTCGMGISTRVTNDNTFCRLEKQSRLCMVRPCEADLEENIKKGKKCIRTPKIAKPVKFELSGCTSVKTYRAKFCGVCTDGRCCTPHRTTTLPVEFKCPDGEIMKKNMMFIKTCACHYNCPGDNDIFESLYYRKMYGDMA
Test: SPR binding kinetics and affinity, murine CTGF
Settings: 25° C., 1:1 binding model
REPORTED_METRIC: Murine CTGF koff (s⁻¹)
Numeric only. Scale: s⁻¹

* SEQ ID NO: 11: optimized CTGF-binding hNGAL lipocalin mutein (protein, lipocalin mutein) QDSTSDLIPAPPLSKVPLQQNFQDNQFQGKWYVVGLAGNAILREDKQPAKMFATIYELKEDKSYDVTSVRFEAKSCSYTSKTFVPGSQPGEFTAGNIKSAPGQTSTLVRVVSTNYNQHAMVFFKHVSQNRETFVITLYGRTKELTSELKENFIRFSKSLGLPENHIVFPVPIDQCIDG | 8.19e-05

Moving on to another molecule below.
Data request, read-out Murine CTGF koff, for SEQ ID NO: 31: optimized CTGF-binding hNGAL lipocalin mutein (protein, lipocalin mutein) QDSTSDLIPAPPLSKVPLQQNFQDNQFQGKWYVVGWAGNVKLREDKQPQKMSATIYELKEDKSYDVTEVVFEQKKCHYIIKTFVPGSQPGEFTAGDIKSPPGYTSSLVRVVSTNYNQHAMVFFKKVSQNREFFWITLYGRTKELTSELKENFIRFSKSLGLPENHIVFPVPIDQCIDG
0.000444
